test system: MCF7; test: Cytotoxicity against estrogen receptor-positive human MCF7 cells expressing wild type p53 after 48 hrs by SRB assay; assay type: functional, cell-based; conditions: MCF7, 48 h
So I've got a bunch of compounds here, and I need their IC50 values.

Write down IC50 measured for item `CC[C@@]1(O)C(=O)OCc2c1cc1n(c2=O)Cc2cc3ccccc3nc2-1`
1.1 µM

Determine from records and report IC50 for `CCn1cc(-c2nc3ccc(N)cc3[nH]2)c(=O)c2cc(F)c(N3CCN(C)CC3)cc21`
> 10 µM

For the compound `CCn1cc(-c2nc3ccc(N)cc3[nH]2)c(=O)c2cc(F)c(N3CCNCC3)nc21` , give its measured IC50 value.
> 10 µM

Output IC50 of `C[C@H]1COc2c(N3CCN(C)CC3)c(F)cc3c(=O)c(-c4nc5ccc([N+](=O)[O-])cc5s4)cn1c23`
> 10 µM

Using known records, supply IC50 for `CCn1cc(-c2nc3ccc([N+](=O)[O-])cc3s2)c(=O)c2cc(F)c(N3CCN(C)CC3)cc21`
> 10 µM

For the compound `CCn1cc(-c2nc3ccc([N+](=O)[O-])cc3o2)c(=O)c2cc(F)c(N3CCNCC3)nc21` , give its measured IC50 value.
> 10 µM

Write down IC50 measured for item `CCn1cc(-c2nc3ccccc3[nH]2)c(=O)c2cc(F)c(N3CCNCC3)cc21`
> 10 µM

Give the reported IC50 for this compound. CCn1cc(-c2nc3ccc([N+](=O)[O-])cc3[nH]2)c(=O)c2cc(F)c(N3CCNC(C)C3)c(F)c21 (stereo not drawn)
4.9 µM

----------
Kindly state pIC50 for each of the entries shown.
test system: A549; assay: Cytotoxicity against human A549 cells expressing wild type p53 after 48 hrs by SRB assay; type: functional, cell-based; conditions: A549, 48 h
Just so you know, pIC50 here is -log10 of the concentration in molar units; reply with that number alone.

Specify measured pIC50 for CCn1cc(-c2nc3ccc([N+](=O)[O-])cc3o2)c(=O)c2cc(F)c(N3CCNC(C)C3)c(F)c21 (centres undefined) .
5.82

Please give the documented pIC50 of `CCn1cc(-c2nc3ccccc3[nH]2)c(=O)c2cc(F)c(N3CCNCC3)nc21`
5.11

Give the measured pIC50 for `CCn1cc(-c2nc3ccc([N+](=O)[O-])cc3o2)c(=O)c2cc(F)c(N3CCNCC3)nc21`
5.14

Could you please provide reported pIC50 for `CCn1cc(-c2nc3ccc(Cl)cc3[nH]2)c(=O)c2cc(F)c(N3CCNCC3)cc21` ? Thanks!
6.30

Supply recorded pIC50 for `CCn1cc(-c2nc3ccc([N+](=O)[O-])cc3s2)c(=O)c2cc(F)c(N3CCN(C)CC3)cc21` here.
5.00

Identify measured pIC50 corresponding to CCn1cc(-c2nc3ccc([N+](=O)[O-])cc3s2)c(=O)c2cc(F)c(N3CCNC(C)C3)c(F)c21 (centres undefined)
5.15

----------
For each record, write down the corresponding GI50.
tested on: HeLa; experiment: Cytotoxicity against p53-deficient human HeLa cells after 48 hrs by SRB assay; assay type: functional, cell-based

Dear colleague, please send me the reported GI50 for `CCn1cc(-c2nc3ccc([N+](=O)[O-])cc3s2)c(=O)c2cc(F)c(N3CCN(C)CC3)cc21` when you can.
> 10 µM

Using the record for `CCn1cc(-c2nc3ccccc3[nH]2)c(=O)c2cc(F)c(N3CCNCC3)cc21` , state its measured GI50.
> 10 µM

Note GI50 for the molecule shown: `C[C@H]1COc2c(N3CCN(C)CC3)c(F)cc3c(=O)c(-c4nc5ccc([N+](=O)[O-])cc5s4)cn1c23`
> 10 µM

----------
Kindly state IC50 for each of the entries shown.
system: A549; assay: Cytotoxicity against human A549 cells expressing wild type p53 after 48 hrs by SRB assay; format: functional, cell-based; conditions: A549, 48 h

# return recorded IC50 for input `C[C@H]1COc2c(N3CCN(C)CC3)c(F)cc3c(=O)c(-c4nc5ccc([N+](=O)[O-])cc5s4)cn1c23`
> 10 µM

Read the entry `CCn1cc(-c2nc3ccc(N)cc3[nH]2)c(=O)c2cc(F)c(N3CCN(C)CC3)cc21` and write its reported IC50.
> 10 µM

Identify measured IC50 associated with `CCn1cc(-c2nc3ccc(N)cc3[nH]2)c(=O)c2cc(F)c(N3CCNCC3)cc21`
> 10 µM
